Numbers sourced from ChEMBL document CHEMBL1130002.

# assay_procedure: in vivo
# run_parameters: male, rat, po, 20 mg/kg
measure_name: half-life (h)
Quick reminder: number only, in h, skip the unit.

stdin: Report measured half-life; entry is NS(=O)(=O)c1ccc(-n2nc(C(F)(F)F)cc2-c2ccc(Cl)cc2)cc1
stdout: 117

---

# assay_procedure: in vivo
# run_parameters: male, rat, iv, 10 mg/kg
half-life listing for selected compounds.
Quick reminder: number only, in h, skip the unit.

stdin: Report measured half-life; entry is CS(=O)(=O)c1ccc(-n2nc(C(F)(F)F)cc2-c2ccc(F)cc2)cc1 [SC-58125]
stdout: 221

---

# assay_procedure: in vivo
# run_parameters: male, rat, iv, 10 mg/kg
measure_name: half-life
The reply should read as a number followed by its unit.

{"compound": "Cc1ccc(-c2cc(C(F)(F)F)nn2-c2ccc(S(N)(=O)=O)cc2)cc1 [CELECOXIB]", "measure_name": "half-life", "data_value": "3.5 h"}

stdin: Report measured half-life; entry is COc1ccc(-c2cc(C(F)F)nn2-c2ccc(S(N)(=O)=O)cc2)cc1F [DERACOXIB]
stdout: 3.5 h

stdin: Report measured half-life; entry is NS(=O)(=O)c1ccc(-n2nc(C(F)F)cc2-c2ccc(Cl)cc2)cc1
stdout: 4.5 h
